test system: SARS-CoV-2 PL^pro (Severe acute respiratory syndrome coronavirus 2, UniProt P0DTD1)
measure: Kd
State the value with its unit after it.

# return Kd for [Bi+3] [Bi^3+] , test system: SARS-CoV-2 PL^pro (Severe acute respiratory syndrome coronavirus 2, UniProt P0DTD1)
1.13 µM

* * *

test system: SARS-CoV-2 M^pro (Severe acute respiratory syndrome coronavirus 2, UniProt P0DTD1)
measure: pKd
Lab note: report pKd as minus log10 of the concentration in molar units, number only.

Recall the reported pKd of [Bi+3] on SARS-CoV-2 M^pro (Severe acute respiratory syndrome coronavirus 2, UniProt P0DTD1) and write it down.
6.22

* * *

test system: UniProt:P0DTD1
measure: IC50

Identify measured IC50 corresponding to CC(=O)N[C@@H](CS)C(=O)O
> 450 µM

* * *

System: VeroE6 cells
procedure details: Cell viability assay (CellTiterGlo), VeroE6
Assay type: cell-based, African green monkey
conditions: 48 hrs incubation; concentration based on metal content; read-out: CC50 VeroE6
Below, each entry is listed with its recorded CC50.
Units required after the number.

CC[PH](CC)(CC)[Au][S][C@@H]1O[C@H](COC(C)=O)[C@@H](OC(C)=O)[C@H](OC(C)=O)[C@H]1OC(C)=O
14.2 µM

Now for a further compound.
State its CC50: CCP(CC)CC.[Au+].[Cl-]
13.5 µM

* * *

test system: SARS-CoV-2 PL^pro (Severe acute respiratory syndrome coronavirus 2, UniProt P0DTD1)
measure: IC50

Provide only the value of recorded IC50 for CC(=O)N[C@@H](CS)C(=O)O [NAC, N-acetyl cysteine]
> 150 µM
